target: RLuc8.6-535 (Renilla reniformis, UniProt P27652, A123S/A143M/A55T/C124A/D154M/D162E/E155G/I163L/K136R/M185L/M253L/S130A/S287L); format: biochemical; parameters: expressed in transfected cells; host or cells: COST cells (so in the source); conditions: bioluminescence spectrum, ATTO LumiFL
Sequence (P27652 whole entry A55T/A123S/C124A/S130A/K136R/A143M/D154M/E155G/D162E/I163L/M185L/M253L/S287L): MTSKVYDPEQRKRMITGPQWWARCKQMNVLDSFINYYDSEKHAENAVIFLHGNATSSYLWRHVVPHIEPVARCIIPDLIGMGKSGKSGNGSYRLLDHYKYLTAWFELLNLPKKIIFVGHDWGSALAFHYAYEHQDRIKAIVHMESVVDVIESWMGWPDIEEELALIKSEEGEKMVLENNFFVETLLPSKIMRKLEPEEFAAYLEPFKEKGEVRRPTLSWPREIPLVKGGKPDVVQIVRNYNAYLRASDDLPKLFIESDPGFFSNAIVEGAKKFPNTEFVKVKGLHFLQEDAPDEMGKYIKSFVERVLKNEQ
assay readout: RLuc8.6-535 half-width (nm)

| compound | result |
| --- | --- |
| O=c1c(Cc2ccccc2)nc2c(Cc3ccccc3)[nH]c(-c3ccc(OCCO)cc3)cn1-2 | [68] nm |
| O=c1c(Cc2ccc(O)cc2)nc2c(Cc3ccccc3)[nH]c(-c3ccc(OCCCO)cc3)cn1-2 | [56] nm |
| Cc1ccc(-c2cn3c(=O)c(Cc4ccccc4)nc-3c(Cc3ccccc3)[nH]2)cc1 | [49] nm |
| O=c1c(Cc2ccccc2)nc2c(Cc3ccccc3)[nH]c(-c3ccc(OCCCCO)cc3)cn1-2 | [68] nm |
| O=c1c(Cc2ccccc2)nc2c(Cc3ccccc3)[nH]c(-c3ccc(OCCCO)cc3)cn1-2 | [56] nm |
| COCc1ccc(-c2cn3c(=O)c(Cc4ccc(O)cc4)nc-3c(Cc3ccccc3)[nH]2)cc1 [Example 6-Ether-CTZ, reference compound] | [49] nm |

====

Below, each entry is listed with its recorded RLuc8 luminescence intensity (%).
target: RLuc8 (Renilla reniformis, UniProt P27652, A143M/A55T/C124A/K136R/M185V/M253L/S130A/S287L); construct: expressed in transfected cells; host or cells: COST cells (so in the source); format: biochemical; settings: 2 μM substrate in PBS pH 7.4, cell lysate, maximum intensity over 1 second, relative value
Sequence (P27652 whole entry A55T/C124A/S130A/K136R/A143M/M185V/M253L/S287L): as the sequence (P27652 whole entry A55T/A123S/C124A/S130A/K136R/A143M/D154M/E155G/D162E/I163L/M185L/M253L/S287L) above, with S123A, M154D, G155E, E162D, L163I, L185V counted along it
assay readout: RLuc8 luminescence intensity (%)

| compound | numeric readout |
| --- | --- |
| O=c1c(Cc2ccccc2)nc2c(Cc3ccccc3)[nH]c(-c3ccc(OCCO)cc3)cn1-2 | 6.21 |
| COCCCOc1ccc(-c2cn3c(=O)c(Cc4ccccc4)nc-3c(Cc3ccccc3)[nH]2)cc1 | 2.93 |
| COCc1ccc(-c2cn3c(=O)c(Cc4ccccc4)nc-3c(Cc3ccccc3)[nH]2)cc1 [6-Ether-2H-CTZ, reference compound] | 0.36 |
| O=c1c(Cc2ccccc2)nc2c(Cc3ccccc3)[nH]c(-c3ccc(OCCCCCO)cc3)cn1-2 | 2.88 |
| O=c1c(Cc2ccccc2)nc2c(Cc3ccccc3)[nH]c(-c3ccc(OCCCO)cc3)cn1-2 | 5.03 |
| COCc1ccc(-c2cn3c(=O)c(Cc4ccc(O)cc4)nc-3c(Cc3ccccc3)[nH]2)cc1 [Example 6-Ether-CTZ, reference compound] | 0.85 |
| O=c1c(Cc2ccc(O)cc2)nc2c(Cc3ccccc3)[nH]c(-c3ccc(OCCCO)cc3)cn1-2 | 9.74 |
| CCc1ccc(-c2cn3c(=O)c(Cc4ccccc4)nc-3c(Cc3ccccc3)[nH]2)cc1 | 0.62 |
| CCCCOc1ccc(-c2cn3c(=O)c(Cc4ccc(O)cc4)nc-3c(Cc3ccccc3)[nH]2)cc1 | 8.07 |
| O=c1c(Cc2ccc(O)cc2)nc2c(Cc3ccccc3)[nH]c(-c3ccc(OCCO)cc3)cn1-2 | 15.0 |
| CCCCOc1ccc(-c2cn3c(=O)c(Cc4ccccc4)nc-3c(Cc3ccccc3)[nH]2)cc1 | 2.00 |
| Cc1ccc(-c2cn3c(=O)c(Cc4ccccc4)nc-3c(Cc3ccccc3)[nH]2)cc1 | 1.44 |
| O=c1c(Cc2ccccc2)nc2c(Cc3ccccc3)[nH]c(-c3ccc(OCCCCO)cc3)cn1-2 | 3.45 |
| O=c1c(Cc2ccc(O)cc2)nc2c(Cc3ccccc3)[nH]c(-c3ccc(OCCCCO)cc3)cn1-2 | 11.8 |
| Oc1ccc(Cc2nc3c(Cc4ccccc4)nc(-c4ccc(O)cc4)cn3c2O)cc1 | 80.5 |
| CCc1ccc(-c2cn3c(=O)c(Cc4ccc(O)cc4)nc-3c(Cc3ccccc3)[nH]2)cc1 | 2.68 |
| O=c1c(Cc2ccccc2)nc2c(Cc3ccccc3)[nH]c(-c3ccccc3)cn1-2 [DeepBlueC (trade name), reference compound] | 2.30 |

====

target: RLuc8.6-535 (Renilla reniformis, UniProt P27652, A123S/A143M/A55T/C124A/D154M/D162E/E155G/I163L/K136R/M185L/M253L/S130A/S287L); format: biochemical; design: expressed in transfected cells; host or cells: COST cells (so in the source); settings: bioluminescence spectrum, ATTO LumiFL

| molecule | RLuc8.6-535 half-width (nm) |
| --- | --- |
| CCCCOc1ccc(-c2cn3c(=O)c(Cc4ccccc4)nc-3c(Cc3ccccc3)[nH]2)cc1 | [53] nm |
| O=c1c(Cc2ccc(O)cc2)nc2c(Cc3ccccc3)[nH]c(-c3ccc(OCCCCO)cc3)cn1-2 | [60] nm |
| CCCCOc1ccc(-c2cn3c(=O)c(Cc4ccc(O)cc4)nc-3c(Cc3ccccc3)[nH]2)cc1 | [60] nm |
| CCc1ccc(-c2cn3c(=O)c(Cc4ccc(O)cc4)nc-3c(Cc3ccccc3)[nH]2)cc1 | [60] nm |
| COCc1ccc(-c2cn3c(=O)c(Cc4ccccc4)nc-3c(Cc3ccccc3)[nH]2)cc1 [6-Ether-2H-CTZ, reference compound] | [53] nm |

====

target: RLuc8 (Renilla reniformis, UniProt P27652, A143M/A55T/C124A/K136R/M185V/M253L/S130A/S287L); construct: expressed in transfected cells; host or cells: COST cells (so in the source); format: biochemical; settings: bioluminescence spectrum, ATTO LumiFL
Below, each entry is listed with its recorded RLuc8 maximum luminescence wavelength (nm).
assay readout: RLuc8 maximum luminescence wavelength (nm)

| smiles data | numeric readout |
| --- | --- |
| O=c1c(Cc2ccccc2)nc2c(Cc3ccccc3)[nH]c(-c3ccc(OCCO)cc3)cn1-2 | 413 |
| COCCCOc1ccc(-c2cn3c(=O)c(Cc4ccccc4)nc-3c(Cc3ccccc3)[nH]2)cc1 | 416 |
| Cc1ccc(-c2cn3c(=O)c(Cc4ccccc4)nc-3c(Cc3ccccc3)[nH]2)cc1 | 408 |

====

target: RLuc8 (Renilla reniformis, UniProt P27652, A143M/A55T/C124A/K136R/M185V/M253L/S130A/S287L); construct: expressed in transfected cells; host or cells: COST cells (so in the source); assay type: biochemical; conditions: bioluminescence spectrum, ATTO LumiFL
Below, each entry is listed with its recorded RLuc8 maximum luminescence wavelength (nm).
assay readout: RLuc8 maximum luminescence wavelength (nm)

| smiles data | result |
| --- | --- |
| O=c1c(Cc2ccc(O)cc2)nc2c(Cc3ccccc3)[nH]c(-c3ccc(OCCCCO)cc3)cn1-2 | 404 nm |
| O=c1c(Cc2ccccc2)nc2c(Cc3ccccc3)[nH]c(-c3ccc(OCCCO)cc3)cn1-2 | 411 nm |
| O=c1c(Cc2ccccc2)nc2c(Cc3ccccc3)[nH]c(-c3ccc(OCCCCCO)cc3)cn1-2 | 403 nm |

====

biological target: RLuc8 (Renilla reniformis, UniProt P27652, A143M/A55T/C124A/K136R/M185V/M253L/S130A/S287L); construct: expressed in transfected cells; host or cells: COST cells (so in the source); type: biochemical; settings: bioluminescence spectrum, ATTO LumiFL
assay readout: RLuc8 maximum luminescence wavelength (nm)

| molecule | target desc | numeric readout |
| --- | --- | --- |
| Oc1ccc(Cc2nc3c(Cc4ccccc4)nc(-c4ccc(O)cc4)cn3c2O)cc1 | RLuc8 (Renilla reniformis, UniProt P27652, A143M/A55T/C124A/K136R/M185V/M253L/S130A/S287L) | 484 |
| CCCCOc1ccc(-c2cn3c(=O)c(Cc4ccccc4)nc-3c(Cc3ccccc3)[nH]2)cc1 | RLuc8 (Renilla reniformis, UniProt P27652, A143M/A55T/C124A/K136R/M185V/M253L/S130A/S287L) | 411 |
| O=c1c(Cc2ccc(O)cc2)nc2c(Cc3ccccc3)[nH]c(-c3ccc(OCCCO)cc3)cn1-2 | RLuc8 (Renilla reniformis, UniProt P27652, A143M/A55T/C124A/K136R/M185V/M253L/S130A/S287L) | 414 |
| O=c1c(Cc2ccccc2)nc2c(Cc3ccccc3)[nH]c(-c3ccccc3)cn1-2 [DeepBlueC (trade name), reference compound] | RLuc8 (Renilla reniformis, UniProt P27652, A143M/A55T/C124A/K136R/M185V/M253L/S130A/S287L) | 416 |
| O=c1c(Cc2ccc(O)cc2)nc2c(Cc3ccccc3)[nH]c(-c3ccc(OCCO)cc3)cn1-2 | RLuc8 (Renilla reniformis, UniProt P27652, A143M/A55T/C124A/K136R/M185V/M253L/S130A/S287L) | 411 |
| O=c1c(Cc2ccccc2)nc2c(Cc3ccccc3)[nH]c(-c3ccc(OCCCCO)cc3)cn1-2 | RLuc8 (Renilla reniformis, UniProt P27652, A143M/A55T/C124A/K136R/M185V/M253L/S130A/S287L) | 404 |
